Hello, the source for this data is patent US20220064221A1, in case you need it.

- System name: integrin αvβ3 (Homo sapiens, UniProt P05106+P06756)
- Sequence (P06756 31-889 limits assumed): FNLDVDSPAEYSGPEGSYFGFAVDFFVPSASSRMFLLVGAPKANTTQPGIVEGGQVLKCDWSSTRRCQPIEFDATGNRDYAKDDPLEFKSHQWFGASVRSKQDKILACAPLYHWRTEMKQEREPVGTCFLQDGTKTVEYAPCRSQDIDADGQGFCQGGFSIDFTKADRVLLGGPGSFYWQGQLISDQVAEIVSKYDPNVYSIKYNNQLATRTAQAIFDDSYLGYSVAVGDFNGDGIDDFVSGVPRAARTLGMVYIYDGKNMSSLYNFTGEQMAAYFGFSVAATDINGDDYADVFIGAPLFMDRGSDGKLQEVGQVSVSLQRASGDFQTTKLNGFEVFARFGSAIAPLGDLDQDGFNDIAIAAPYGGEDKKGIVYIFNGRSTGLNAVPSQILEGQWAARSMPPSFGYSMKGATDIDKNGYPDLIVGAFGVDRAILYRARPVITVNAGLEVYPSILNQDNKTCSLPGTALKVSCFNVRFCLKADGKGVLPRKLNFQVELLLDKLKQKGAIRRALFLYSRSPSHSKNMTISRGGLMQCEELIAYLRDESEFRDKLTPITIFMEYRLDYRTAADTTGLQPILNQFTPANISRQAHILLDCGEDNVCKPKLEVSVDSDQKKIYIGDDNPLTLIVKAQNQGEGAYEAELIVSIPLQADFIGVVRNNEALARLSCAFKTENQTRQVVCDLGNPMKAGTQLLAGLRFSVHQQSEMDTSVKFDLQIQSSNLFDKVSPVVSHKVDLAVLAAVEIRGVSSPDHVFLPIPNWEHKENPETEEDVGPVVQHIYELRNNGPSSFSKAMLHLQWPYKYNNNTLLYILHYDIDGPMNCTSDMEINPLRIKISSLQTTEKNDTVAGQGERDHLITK
- Sequence (P06756 891-1048 partner limits assumed): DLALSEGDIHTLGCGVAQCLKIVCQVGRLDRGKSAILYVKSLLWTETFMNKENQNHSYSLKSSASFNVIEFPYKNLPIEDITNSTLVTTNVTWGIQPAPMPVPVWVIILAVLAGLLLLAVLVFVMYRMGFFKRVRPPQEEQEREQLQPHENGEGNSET
- Sequence (P05106 27-788): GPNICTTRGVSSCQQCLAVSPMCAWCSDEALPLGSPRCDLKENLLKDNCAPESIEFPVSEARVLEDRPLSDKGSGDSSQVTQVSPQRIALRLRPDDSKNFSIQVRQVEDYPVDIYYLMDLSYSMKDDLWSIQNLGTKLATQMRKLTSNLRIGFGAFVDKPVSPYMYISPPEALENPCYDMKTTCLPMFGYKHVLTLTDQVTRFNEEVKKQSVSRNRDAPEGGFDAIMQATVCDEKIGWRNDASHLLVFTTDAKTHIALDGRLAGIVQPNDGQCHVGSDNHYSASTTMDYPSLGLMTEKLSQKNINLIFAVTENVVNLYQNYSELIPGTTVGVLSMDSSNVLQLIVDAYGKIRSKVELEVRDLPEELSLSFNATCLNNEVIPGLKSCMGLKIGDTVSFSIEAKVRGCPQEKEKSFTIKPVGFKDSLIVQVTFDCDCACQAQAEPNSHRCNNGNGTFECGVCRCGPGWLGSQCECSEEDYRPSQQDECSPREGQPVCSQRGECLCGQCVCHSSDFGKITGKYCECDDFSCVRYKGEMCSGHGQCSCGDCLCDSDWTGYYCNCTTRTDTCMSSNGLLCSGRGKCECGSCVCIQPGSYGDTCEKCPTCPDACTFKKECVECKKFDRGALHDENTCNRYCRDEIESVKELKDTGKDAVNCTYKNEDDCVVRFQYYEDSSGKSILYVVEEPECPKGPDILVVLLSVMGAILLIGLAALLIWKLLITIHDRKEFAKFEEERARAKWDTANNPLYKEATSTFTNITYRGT
- Experiment notes: Human FP direct binding assay
- Recorded conditions: Table 3; fluorescently modified peptides; Integrin aVb3
No end group written: not given here. *: point of attachment. FITC = O=C1OC2(c3ccc(O)cc3Oc3cc(O)ccc32)c2ccc(NC(=S)*)cc21; Ahx = NCCCCCC(=O)O
Measured parameter: pKd
Interpret pKd as the negative base-10 log of the concentration measured in mol/L.

Problem: For the substance {FITC-Ahx}-GRGSSP [BCY7766] , report pKd.
Solution: 8.94
